Test system: human Factor 7 mRNA
assay.name: Antisense inhibition of human Factor 7 with short (14-mer) oligonucleotides in HepB3 cells, electroporation 1,000 nM
Assay type: cell-based
condition.details: electroporation, 1,000 nM antisense oligonucleotide, approximately 24 hours, Factor 7 mRNA relative to untreated control cells
Strand notation (5' to 3'): a small letter for the sugar, then the base; units joined by * are phosphorothioate-linked, units joined directly phosphodiester-linked; [ ] holds rarer units or linkages, { } end groups; capitals alone tell only the bases. e = 2'-O-(2-methoxyethyl) (MOE); [5mC] = 5-methylcytosine; d = 2'-deoxy (DNA)
measured.endpoint: % Inhibition (%)
Answer in %, number only, no unit symbol.

substance	% Inhibition / %
435777 (antisense e[5mC]*eT*dG*dA*dG*dG*dA*dT*dG*d[5mC]*dA*dG*eG*e[5mC]) [compound 435777]	53
435667 (antisense eA*eA*dT*dT*d[5mC]*dG*dG*d[5mC]*d[5mC]*dT*dT*dG*eG*eG) [compound 435667]	16
435809 (antisense e[5mC]*eT*dG*dA*d[5mC]*dA*dA*dT*dG*dT*dG*dA*eT*eG) [compound 435809]	5
435821 (antisense eA*eG*dT*d[5mC]*dA*dG*dT*dA*d[5mC]*dA*dG*dA*e[5mC]*eA) [compound 435821]	0

The reported % Inhibition of the substance 435764 (antisense eT*eG*dA*dG*dA*dG*d[5mC]*dT*dG*d[5mC]*dA*d[5mC]*e[5mC]*eT) [compound 435764] was 8

The reported % Inhibition of the substance 435693 (antisense eG*eG*d[5mC]*dA*dG*dT*d[5mC]*d[5mC]*dT*dG*dG*dG*eT*e[5mC]) [compound 435693] was 43

====

Tested on: human Factor 7 mRNA
assay.name: Antisense inhibition of human Factor 7 mRNA in HepB3 cells, 50 nM antisense oligonucleotide, lipofectin
Type: cell-based
condition.details: Table 1, 50 nM, lipofectin, approximately 24 hours, relative to untreated control cells
Strand notation (5' to 3'): a small letter for the sugar, then the base; units joined by * are phosphorothioate-linked, units joined directly phosphodiester-linked; [ ] holds rarer units or linkages, { } end groups; capitals alone tell only the bases. e = 2'-O-(2-methoxyethyl) (MOE); [5mC] = 5-methylcytosine; d = 2'-deoxy (DNA)
% Inhibition values for the substances below.
Answer in %, number only, no unit symbol.

Please review the entries below; each comes with its answer.
substance	% Inhibition [%]
407961 (antisense eA*eA*eG*eT*eA*dG*dA*dT*dG*dA*dT*dG*d[5mC]*d[5mC]*dT*eG*eA*eG*eT*eG) [compound 407961]	34
407928 (antisense e[5mC]*eT*eT*eG*eG*d[5mC]*dT*dG*dA*dA*dG*dG*dG*dA*dG*eG*eT*eA*eA*eG) [compound 407928]	55
407959 (antisense eG*e[5mC]*eA*eG*eG*dG*dA*dT*dG*dG*d[5mC]*dA*dT*d[5mC]*dG*eA*eG*eT*e[5mC]*e[5mC]) [compound 407959]	0

The reported % Inhibition of the substance 407652 (antisense eT*eG*eG*eG*eA*dG*d[5mC]*dT*dA*d[5mC]*dA*dG*d[5mC]*d[5mC]*dT*e[5mC]*eA*eA*eA*e[5mC]) [compound 407652] was 30

The reported % Inhibition of the substance 407628 (antisense eT*eG*eA*eT*eG*dA*d[5mC]*d[5mC]*dT*dG*d[5mC]*dG*d[5mC]*d[5mC]*dA*e[5mC]*e[5mC]*e[5mC]*eG*e[5mC]) [compound 407628] was 38

The reported % Inhibition of the substance 407646 (antisense eG*eG*eT*eG*eA*dT*dG*d[5mC]*dT*dT*d[5mC]*dT*dG*dA*dA*eT*eT*eG*eT*e[5mC]) [compound 407646] was 81

The reported % Inhibition of the substance 407955 (antisense eT*eG*eT*eG*eA*dA*dA*dT*dA*dT*d[5mC]*dA*dT*dT*dG*eA*e[5mC]*eA*eA*eG) [compound 407955] was 3

====

Test system: human Factor 7 mRNA
assay.name: Antisense inhibition of human Factor 7 mRNA in HepB3 cells, 50 nM antisense oligonucleotide, lipofectin
Type: cell-based
condition.details: Table 1, 50 nM, lipofectin, approximately 24 hours, relative to untreated control cells
Strand notation (5' to 3'): a small letter for the sugar, then the base; units joined by * are phosphorothioate-linked, units joined directly phosphodiester-linked; [ ] holds rarer units or linkages, { } end groups; capitals alone tell only the bases. e = 2'-O-(2-methoxyethyl) (MOE); [5mC] = 5-methylcytosine; d = 2'-deoxy (DNA)
Classification field: enter criterion met for % Inhibition values not below 60%, criterion not met for values below it.

substance	experimental.target	assigned.class
407639 (antisense eT*eT*eT*eG*e[5mC]*dA*dG*d[5mC]*d[5mC]*dA*d[5mC]*dT*d[5mC]*dG*dA*eT*eG*eT*eA*e[5mC]) [compound 407639]	human Factor 7 mRNA	criterion met

In: Record 407650 (antisense e[5mC]*e[5mC]*eA*eT*eG*dT*dG*dA*dG*dG*dG*dT*dT*d[5mC]*dA*eT*eT*eT*e[5mC]*eA) [compound 407650] ; criterion: % Inhibition no lower than 60%. Met?
Out: criterion not met

In: Record 407659 (antisense eG*eA*eT*eG*eG*d[5mC]*dA*dT*d[5mC]*dG*dA*dG*dT*d[5mC]*d[5mC]*eA*e[5mC]*eT*e[5mC]*eT) [compound 407659] ; criterion: % Inhibition no lower than 60%. Met?
Out: criterion not met

In: Record 407946 (antisense eT*e[5mC]*e[5mC]*eA*eA*dA*dA*dA*dT*dG*dA*dA*dT*d[5mC]*dA*eT*eG*eG*eG*e[5mC]) [compound 407946] ; criterion: % Inhibition no lower than 60%. Met?
Out: criterion not met

In: Record 407611 (antisense eT*e[5mC]*eT*e[5mC]*eA*d[5mC]*dA*dG*dT*dT*d[5mC]*d[5mC]*dG*dG*d[5mC]*e[5mC]*e[5mC]*eT*e[5mC]*eG) [compound 407611] ; criterion: % Inhibition no lower than 60%. Met?
Out: criterion met

In: Record 407897 (antisense eG*e[5mC]*eT*eT*eG*dG*dT*dG*d[5mC]*d[5mC]*d[5mC]*dG*dT*dG*dT*eG*eG*eT*e[5mC]*eA) [compound 407897] ; criterion: % Inhibition no lower than 60%. Met?
Out: criterion met

In: Record 407925 (antisense eG*eA*eA*eT*eA*dT*dA*dT*dG*dG*dG*dA*dT*dT*dT*eG*eG*eT*eG*e[5mC]) [compound 407925] ; criterion: % Inhibition no lower than 60%. Met?
Out: criterion met

In: Record 403090 (antisense eA*eG*eT*e[5mC]*e[5mC]*dT*dG*dG*dG*dT*d[5mC]*dA*dT*d[5mC]*dA*eG*e[5mC]*e[5mC]*eG*eG) [compound 403090] ; criterion: % Inhibition no lower than 60%. Met?
Out: criterion met

====

Test system: human Factor 7 mRNA
assay.name: Dose-dependent antisense inhibition of human Factor 7 in HepB3 cells, electroporation
Format: cell-based
condition.details: 12.5 μM, approx. 16 hours (Table 16, Example 8 confirmation)
Strand notation (5' to 3'): a small letter for the sugar, then the base; units joined by * are phosphorothioate-linked, units joined directly phosphodiester-linked; [ ] holds rarer units or linkages, { } end groups; capitals alone tell only the bases. e = 2'-O-(2-methoxyethyl) (MOE); [5mC] = 5-methylcytosine; d = 2'-deoxy (DNA)
measured.endpoint: percent inhibition of Factor 7 mRNA, relative to untreated control cells (%)
Answer in %, number only, no unit symbol.

Please review the entries below; each comes with its answer.
substance	unit	quantitative.readout
422150 (antisense eG*e[5mC]*eA*dT*dG*dG*dT*dG*dA*dT*dG*d[5mC]*dT*dT*d[5mC]*dT*dG*eA*eA*eT) [compound 422150]	%	53
407935 (antisense eA*eT*eG*e[5mC]*eA*dT*dG*dG*dT*dG*dA*dT*dG*d[5mC]*dT*eT*e[5mC]*eT*eG*eA) [compound 407935]	%	84
407939 (antisense eT*eG*e[5mC]*eA*eG*d[5mC]*d[5mC]*d[5mC]*dG*dG*d[5mC]*dA*d[5mC]*d[5mC]*d[5mC]*eA*eG*e[5mC]*eG*eA) [compound 407939]	%	60
422229 (antisense eA*eT*dG*d[5mC]*dA*dT*dG*dG*dT*dG*dA*dT*dG*d[5mC]*dT*eT*e[5mC]*eT*eG*eA) [compound 422229]	%	67
422130 (antisense eG*e[5mC]*e[5mC]*eT*eG*dA*dG*dG*d[5mC]*d[5mC]*dA*dG*d[5mC]*dA*dG*eA*eT*e[5mC]*eA*e[5mC]) [compound 422130]	%	61
422296 (antisense e[5mC]*e[5mC]*dG*dA*dG*dT*dT*d[5mC]*dT*dG*d[5mC]*dA*dG*dG*dA*eG*e[5mC]*eG*eG*e[5mC]) [compound 422296]	%	70
422183 (antisense eG*e[5mC]*eG*d[5mC]*d[5mC]*dA*d[5mC]*d[5mC]*d[5mC]*dG*d[5mC]*d[5mC]*dG*dG*d[5mC]*dT*d[5mC]*eT*eG*e[5mC]) [compound 422183]	%	24
422142 (antisense eG*eA*eG*eT*eT*d[5mC]*dT*dG*d[5mC]*dA*dG*dG*dA*dG*d[5mC]*eG*eG*e[5mC]*e[5mC]*eT) [compound 422142]	%	62
422292 (antisense eG*eT*dT*d[5mC]*dT*dG*d[5mC]*dA*dG*dG*dA*dG*d[5mC]*dG*dG*e[5mC]*e[5mC]*eT*eA*eA) [compound 422292]	%	68
422086 (antisense eT*eG*e[5mC]*eA*eT*dG*dG*dT*dG*dA*dT*dG*d[5mC]*dT*dT*e[5mC]*eT*eG*eA*eA) [compound 422086]	%	74

Next up:
percent inhibition of Factor 7 mRNA, relative to untreated control cells for human Factor 7 mRNA with input 422087 (antisense e[5mC]*eA*eT*eG*e[5mC]*dA*dT*dG*dG*dT*dG*dA*dT*dG*d[5mC]*eT*eT*e[5mC]*eT*eG) [compound 422087] equals 66
